Data credit: paper PMC3499988

Below: a set of entries, each annotated with reported kon.
molecular target: HIV-1 YU-2 gp120 (HIV-1 (YU-2), UniProt P35961); test: SPR
Entry rule: numbers only, all in M⁻¹ s⁻¹.

INSERT INTO measurements (binder, numeric_value) VALUES
  ('Fab m18 S56A (LCDR2) (Fab, V domains shown) VH: VQLLESGPGVVKPSETLSLTCTVSGASVNNYYWTWVRQPPGKGLEWIGNVYDSGDTNYNPSLSSRLSLSMDTSKNQFSLRLSSVTAADTATYYCARYHRHFIRGPLSFDYWGRGTLVTVSS VL: LQMTQSPSFLSASVGDRVSITCRASQDIQKFLAWYQLTPGDAPKLLMYSASTLQAGVPSRFSGSGSGTEFTLTISGLQPEDFATYYCQHLKRYPYTFGQGTKLEIS', 28000);

Read the next record carefully.
So what's the measured kon for this one? Fab m18 F99A (HCDR3) (Fab, V domains shown) VH: VQLLESGPGVVKPSETLSLTCTVSGASVNNYYWTWVRQPPGKGLEWIGNVYDSGDTNYNPSLSSRLSLSMDTSKNQFSLRLSSVTAADTATYYCARYHRHAIRGPLSFDYWGRGTLVTVSS VL: LQMTQSPSFLSASVGDRVSITCRASQDIQKFLAWYQLTPGDAPKLLMYSASTLQSGVPSRFSGSGSGTEFTLTISGLQPEDFATYYCQHLKRYPYTFGQGTKLEIS
45000
